- System: Escherichia coli TOP10;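 note: peptides expressed intracellularly from a pBAD plasmid library in pooled LB shake-flask culture, induced with 0.3% L-arabinose, DNA abundance read by NGS, three biological replicates, DESeq2 with apeglm shrinkage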
- ASSAY METHOD TEXT: shrunken log2 fold change of peptide-encoding DNA abundance (4.5 h post-induction vs induction); higher = less antimicrobial activity (less host growth inhibition)
- CONDITION INFO: time post-induction: 4.5 h; library: site-saturation at positions 5, 18, 19, 20
PROPERTY NAME: shrunken log2 fold change

{"columns": ["CONSTRUCT SEQUENCE", "MEASURED"],
 "data": [
  ["RRIRPRPPRLPRPRPRPHLTPRP", 0.185],
  ["RRIRTRPPRLPRPRPRPTNVPRP", 0.118],
  ["RRIRKRPPRLPRPRPRPNKEPRP", -0.0272],
  ["RRIRSRPPRLPRPRPRPSMGPRP", -0.0521],
  ["RRIRSRPPRLPRPRPRPQAFPRP", -0.114],
  ["RRIRTRPPRLPRPRPRPGIPPRP", -0.394],
  ["RRIRSRPPRLPRPRPRPFFHPRP", -0.498],
  ["RRIRARPPRLPRPRPRPDDIPRP", 0.0386],
  ["RRIRIRPPRLPRPRPRPKAYPRP", -0.124],
  ["RRIRARPPRLPRPRPRPEIEPRP", 0.719],
  ["RRIRIRPPRLPRPRPRPWCEPRP", -0.639],
  ["RRIRMRPPRLPRPRPRPEHFPRP", 0.0315],
  ["RRIRVRPPRLPRPRPRPWMYPRP", -0.225],
  ["RRIRERPPRLPRPRPRPATVPRP", -0.2],
  ["RRIRFRPPRLPRPRPRPNNMPRP", -0.699]
]}

Origin of measurements: the supplement of paper PMC9112550
